test system: optoTopBP1 Flp-In 293 T-REx (HEK293) cells; test: light-induced TopBP1 condensate (nuclear foci) count, plate-normalised robust z-score vs non-control wells; higher = more TopBP1 condensates (negative = condensation inhibitor), active = hit call of the paper; settings: 10 µM; incubation time 2 h
Structures can show the parent of a compound that is named as a salt. Among all 1,500 compounds or so, about 30 (2%) showed activity.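 Rule for the calls: active = robust z-score below -2; a few such results were not called.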 Many of the other results were omitted from the sample, so actives are more common in it than they were.
Hi there, use one of these labels in your reply, thanks! Y = active, N = inactive

Asked: Write down the call the test reported for this molecule. Item: CC(C)(C)NCC(O)CSc1nc(-c2ccc(C(N)=O)s2)cs1 (stereo not given) [Arotinolol hydrochloride]
Given back: N

Asked: Write down the call the test reported for this molecule. Item: CCCOc1ccc2[nH]c(NC(=O)OC)nc2c1 [Oxibendazol]
Given back: Y

Continuing:
Asked: Write down the call the test reported for this molecule. Item: OCCN1CCN(CC/C=C2/c3ccccc3Sc3ccc(Cl)cc32)CC1 [Zuclopenthixol dihydrochloride]
Given back: N

Asked: Write down the call the test reported for this molecule. Item: COC(=O)Nc1nc2cc(C(=O)c3cccs3)ccc2[nH]1 [Nocodazole]
Given back: N

Asked: Write down the call the test reported for this molecule. Item: CC[N+](C)(CC)CCC[n+]1c(-c2ccccc2)c2cc(N)ccc2c2ccc(N)cc21 [Propidium iodide]
Given back: Y

The reported numbers originate from the supplement of paper PMC12582362.
